src = the RNAGym collection of RNA variant scans (doi:10.7554/elife.80360)

B1: HDV Ribozyme (parent)
chain: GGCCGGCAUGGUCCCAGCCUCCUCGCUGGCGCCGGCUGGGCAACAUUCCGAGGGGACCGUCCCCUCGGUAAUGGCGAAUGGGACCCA

# Variants of: B1
# procedure text: self-cleavage, relative activity (ratio to wild type); higher = more cleavage; co-transcriptional
measured metric: self-cleavage

1. GGCCGGCAUGGUCCCAGCCUCCUCGCUGGCGCCGGCUGGGCAACAUUCCGAGGGGACCCUCCCCUCGGUAACGGCGAAUGGGACCCA | 0.917
2. GGCCGGGAUGGUCCCAGCCUCCUCGCUGGCGCCGGCUGGGCAACAUUCGGAGGGGACCGUCCCCUCGGUAAUGGCGAAUGGGACCCA | 0.123
3. GGCCGGCAUGGUCCCAGCCUCCUCGCUGGCGCCGGCUGGGCAACAUUCCGAGUUGACCGUCCCCUCGGUAAUGGCGAAUGGGACCCA | 0.831
4. GGCCGGCAUGGUCCCAGCCUCCUCGCUGGCGCCGGCUGGGCAACAUUCCGAGGGGACCGUCCGCUCCGUAAUGGCGAAUGGGACCCA | 0.342
5. GGCUGGCAUGGUCCCAGCCUCCUCGCUGGCGCCGGCUGGGCAACAUUCCGAGGGGACCGCCCCCUCGGUAAUGGCGAAUGGGACCCA | 0.872
6. GGCCGGCAUGGUCCCAGCCUCCUCGCUGGCGCCGGUUGGGCAACAUUCCGAGGGGACCGUCCCCUCGGUAAUGGCGAAUGGGACUCA | 0.88
7. GGCCGGCAUGGUCCCAGCCUCCUCGCUGGCGCUGGCUGGGCAACAUCCCGAGGGGACCGUCCCCUCGGUAAUGGCGAAUGGGACCCA | 0.682
8. GGCCGGCAUGGUCCCAGCCUCCUCGCUGGCGCCGGCUGGGCAACAUUCCGAGGGGACCGUCCCUUCGGUAAUGGCGAAUGGGACCCA | 0.995
9. GGCCGGCAUGGUCCCAGCCUGCUCGCUGGCGACGGCUGGGCAACAUUCCGAGGGGACCGUCCCCUCGGUAAUGGCGAAUGGGACCCA | 0.0415
10. GGCCGGCAAGGUCCCAGCCUCCUCGCUGGCGCCGGCUGGGCAACAUUCCGAGGGGACCGUCCCCUCGGUAAUGGCGAAUCGGACCCA | 0.189
11. GGCCGGCAUGGUCCCAGCCUCCUCGCUGGCGCCUGCUGGGGAACAUUCCGAGGGGACCGUCCCCUCGGUAAUGGCGAAUGGGACCCA | 0.0723
